molecular target: PRMT1 (Homo sapiens)
pIC50: −log10 of the molar value.
Measured pIC50, listed per entry.

Take a look at these entries with their results.
COMPOUND | EXPERIMENTAL_TARGET | pIC50
CCOCC1(COCC)CCC(c2ccccc2CN(C)CCNC)CC1 [P114] | PRMT1 (Homo sapiens) | > 7.30
CNCCN(C)Cc1ncccc1C1CCN(c2cc(C)nc(N)n2)CC1 [P321] | PRMT1 (Homo sapiens) | > 7.30
CNCCN(C)Cc1ccccc1[C@H]1CC[C@@H](OC(C)C)CC1 [P057] | PRMT1 (Homo sapiens) | > 7.30
CNCCN(C)Cc1ncccc1N1CCc2nc(N(C)C)nc(C)c2CC1 [P272] | PRMT1 (Homo sapiens) | 6.30 to 7.30
CNCCN(C)Cc1ccc(NS(=O)(=O)N(C)C)nc1C1CCN(c2cccc(C)c2)CC1 [P365] | PRMT1 (Homo sapiens) | 6.30 to 7.30
CNCCN(C)Cc1nc(C)ccc1C1CCc2cc(F)c(F)cc2CC1 [P036] | PRMT1 (Homo sapiens) | > 7.30
CNCCN(C)Cc1ccc(C)nc1C1CCN(c2ccc(F)cc2)CC1 [P086] | PRMT1 (Homo sapiens) | > 7.30
CNCCN(C)Cc1ccc(Nc2ccc(F)cc2)nc1C1CCN(c2cccc(C)c2)CC1 [P354] | PRMT1 (Homo sapiens) | 6.30 to 7.30

q: // output pIC50; input CNCCN(C)Cc1ccc(C(C)N)cc1C1CCc2cc(F)c(F)cc2CC1 (centres unmarked) [P070] ; system PRMT1 (Homo sapiens)
a: > 7.30

q: // output pIC50; input CCOC[C@H]1CC[C@H](c2ccccc2CN(C)CCNC)CC1 [P049] ; system PRMT1 (Homo sapiens)
a: > 7.30

q: // output pIC50; input CCC1(C(=O)O)CCN(c2cccnc2CN(C)CCNC)CC1 [P315] ; system PRMT1 (Homo sapiens)
a: ≤ 6.30

q: // output pIC50; input CNCCN(C)Cc1ncccc1C1CCN(c2cc(C)nc(C)n2)CC1 [P262] ; system PRMT1 (Homo sapiens)
a: > 7.30

q: // output pIC50; input CNCCN(C)Cc1ccc2[nH]c(C(=O)c3ccccc3)nc2c1C1CCN(c2cccc(C)c2)CC1 [P407] ; system PRMT1 (Homo sapiens)
a: 6.30 to 7.30

* * *

Biological target: PRMT4 (Homo sapiens, UniProt Q86X55)
Sequence (Q86X55 1-608): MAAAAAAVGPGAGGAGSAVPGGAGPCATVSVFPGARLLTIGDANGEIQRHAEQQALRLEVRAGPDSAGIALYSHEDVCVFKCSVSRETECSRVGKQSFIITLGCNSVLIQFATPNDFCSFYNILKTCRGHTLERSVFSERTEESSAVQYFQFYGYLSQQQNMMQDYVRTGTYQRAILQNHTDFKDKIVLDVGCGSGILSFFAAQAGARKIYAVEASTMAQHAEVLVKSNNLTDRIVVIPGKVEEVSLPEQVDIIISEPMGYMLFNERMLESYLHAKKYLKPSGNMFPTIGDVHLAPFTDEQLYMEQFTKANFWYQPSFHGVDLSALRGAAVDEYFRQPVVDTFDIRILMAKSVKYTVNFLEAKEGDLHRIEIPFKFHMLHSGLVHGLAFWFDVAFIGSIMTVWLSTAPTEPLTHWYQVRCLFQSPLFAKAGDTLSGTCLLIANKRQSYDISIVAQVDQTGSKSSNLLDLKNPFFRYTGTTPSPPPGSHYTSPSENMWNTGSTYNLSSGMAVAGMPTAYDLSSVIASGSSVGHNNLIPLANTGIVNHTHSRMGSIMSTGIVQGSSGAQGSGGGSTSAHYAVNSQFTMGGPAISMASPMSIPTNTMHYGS
pIC50: −log10 of the molar value.
ASSAY_METRIC: pIC50

q: // output pIC50; input CNCCN(C)Cc1ncccc1N1CCc2ccccc2CC1 ; system PRMT4 (Homo sapiens, UniProt Q86X55)
a: 6.30 to 7.30

* * *

molecular target: PRMT1 (Homo sapiens, UniProt Q99873)
Sequence (Q99873 whole entry): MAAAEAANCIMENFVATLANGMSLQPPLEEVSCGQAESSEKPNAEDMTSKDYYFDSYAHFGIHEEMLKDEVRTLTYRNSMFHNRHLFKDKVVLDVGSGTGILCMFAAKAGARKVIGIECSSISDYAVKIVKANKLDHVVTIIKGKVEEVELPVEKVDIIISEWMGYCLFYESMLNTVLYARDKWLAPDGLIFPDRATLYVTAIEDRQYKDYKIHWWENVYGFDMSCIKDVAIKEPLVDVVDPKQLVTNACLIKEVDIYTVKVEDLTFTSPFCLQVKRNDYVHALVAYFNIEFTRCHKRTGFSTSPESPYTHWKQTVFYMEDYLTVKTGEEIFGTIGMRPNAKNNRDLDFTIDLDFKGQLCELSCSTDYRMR
pIC50: −log10 of the molar value.
ASSAY_METRIC: pIC50

Take a look at these entries with their results.
COMPOUND | pIC50
CNCCN(C)Cc1ncccc1C1CCN(c2cccc(C(N)=O)c2)CC1 | > 7.30
CNCCN(C)Cc1nc(C)ccc1C1CCN(CCc2ccc(C(F)(F)F)cc2)CC1 | > 7.30
CNCCN(C)Cc1ccc(C)nc1N1CCc2ccccc2CC1 | > 7.30
CNCCN(C)Cc1ncccc1C1CCN(c2ccnc(N3CCCC3)n2)CC1 | > 7.30
CNCCN(C)Cc1ccncc1C1CCN(c2cccc(C)c2)CC1 | > 7.30
CCOCC1CCN(c2cccnc2CN(C)CCNC)CC1 | > 7.30
CNCCN(C)Cc1ncccc1C1CCN(c2ccnc(N)n2)CC1 | > 7.30
CNCCN(C)Cc1ncccc1N1CCC(Oc2cccc(C)c2)CC1 | > 7.30

q: // output pIC50; input CNCCN(C)Cc1ccc(F)cc1C1CCCN(c2ccccc2)CC1 (stereo not shown) ; system PRMT1 (Homo sapiens, UniProt Q99873)
a: > 7.30

q: // output pIC50; input CNCCN(C)Cc1ccc(F)cc1C1CCN(c2cccc(C(C)(C)O)c2)CC1 ; system PRMT1 (Homo sapiens, UniProt Q99873)
a: > 7.30

* * *

biological target: PRMT7 (Homo sapiens)
Sequence (Q9NVM4 whole entry, species assumed): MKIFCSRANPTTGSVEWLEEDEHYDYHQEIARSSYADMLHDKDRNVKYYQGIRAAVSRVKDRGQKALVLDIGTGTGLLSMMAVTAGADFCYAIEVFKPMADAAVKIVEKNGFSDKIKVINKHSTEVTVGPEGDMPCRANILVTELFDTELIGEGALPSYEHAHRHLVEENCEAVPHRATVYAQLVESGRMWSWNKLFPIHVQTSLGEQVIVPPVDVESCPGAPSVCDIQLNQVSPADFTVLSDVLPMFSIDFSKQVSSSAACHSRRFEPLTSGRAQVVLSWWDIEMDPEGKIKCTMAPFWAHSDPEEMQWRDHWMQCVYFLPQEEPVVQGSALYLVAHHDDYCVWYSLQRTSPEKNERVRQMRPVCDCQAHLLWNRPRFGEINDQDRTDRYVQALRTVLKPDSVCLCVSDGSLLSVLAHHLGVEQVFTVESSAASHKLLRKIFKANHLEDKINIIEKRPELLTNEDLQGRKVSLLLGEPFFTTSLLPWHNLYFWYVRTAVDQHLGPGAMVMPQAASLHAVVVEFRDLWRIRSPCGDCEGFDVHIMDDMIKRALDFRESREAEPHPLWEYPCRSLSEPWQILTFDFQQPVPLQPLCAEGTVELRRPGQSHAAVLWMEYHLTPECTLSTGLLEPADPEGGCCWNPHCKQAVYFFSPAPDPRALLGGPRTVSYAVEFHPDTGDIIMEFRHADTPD
pIC50: −log10 of the molar value.
ASSAY_METRIC: pIC50

q: // output pIC50; input CCOCC1(COCC)CCC(c2cccnc2CN(C)CCNC)CC1 [P207] ; system PRMT7 (Homo sapiens)
a: ≤ 5.00

* * *

biological target: PRMT1 (Homo sapiens, UniProt Q99873)
ASSAY_METRIC: IC50

Take a look at these entries with their results.
COMPOUND | IC50
CNCCN(C)Cc1cc(F)ccc1C1CCc2ccc(C(F)(F)F)cc2CC1 (stereo not drawn) | < 50 nM
CNCCN(C)Cc1ncccc1C1CCN(c2ccc(-c3ccncc3)cc2)CC1 | < 50 nM
CCOCC1(COCC)CCN(c2ccccc2CN(C)CCNC)CC1 | < 50 nM
CNCCN(C)Cc1ccc(C(C)O)cc1C1CCN(c2cccc(C)c2)CC1 (stereo not drawn) | < 50 nM
CNCCN(C)Cc1ccccc1C1CCN(c2ccccc2)CC1 | < 50 nM

q: // output IC50; input CNCCN(C)Cc1ccccc1[C@H]1CC[C@]2(CCCOC2)CC1 ; system PRMT1 (Homo sapiens, UniProt Q99873)
a: < 50 nM

q: // output IC50; input CNCCN(C)Cc1ccc2[nH]cnc2c1C1CCN(c2cccc(C)c2)CC1 ; system PRMT1 (Homo sapiens, UniProt Q99873)
a: < 50 nM

q: // output IC50; input CNCCN(C)Cc1ccc(Nc2ncc[nH]2)nc1C1CCN(c2cccc(C)c2)CC1 ; system PRMT1 (Homo sapiens, UniProt Q99873)
a: < 50 nM

q: // output IC50; input CNCCN(C)Cc1ccc(NCCNCC(=O)OC)nc1C1CCN(c2cccc(C)c2)CC1 ; system PRMT1 (Homo sapiens, UniProt Q99873)
a: 50 to 500 nM

q: // output IC50; input CNCCN(C)Cc1ccc2c(c1C1CCN(c3cccc(C)c3)CC1)C(C)(C)C(=O)N2 ; system PRMT1 (Homo sapiens, UniProt Q99873)
a: 50 to 500 nM

q: // output IC50; input CNCCN(C)Cc1ccccc1C1CCN(c2cccc(C)c2)CC1 ; system PRMT1 (Homo sapiens, UniProt Q99873)
a: < 50 nM

q: // output IC50; input CNCCN(C)Cc1ncccc1C1CCN(c2ccnc(C)n2)CC1 ; system PRMT1 (Homo sapiens, UniProt Q99873)
a: < 50 nM

q: // output IC50; input CNCCN(C)Cc1ccc(CC(N)=O)cc1C1CCN(c2cccc(C)c2)CC1 ; system PRMT1 (Homo sapiens, UniProt Q99873)
a: < 50 nM

q: // output IC50; input CNCCN(C)Cc1ncccc1N1CCc2ccc(OC)cc2CC1 ; system PRMT1 (Homo sapiens, UniProt Q99873)
a: < 50 nM

q: // output IC50; input CNCCN(C)Cc1ncccc1N1CCc2cnc(C)nc2CC1 ; system PRMT1 (Homo sapiens, UniProt Q99873)
a: < 50 nM

* * *

target: PRMT1 (Homo sapiens, UniProt Q99873)
ASSAY_METRIC: IC50

Take a look at these entries with their results.
COMPOUND | ASSAY_VALUE
CNCCN(C)Cc1ncccc1C1CCCOC1 (stereo not shown) [P246] | ≥ 0.5 µM
CNCCN(C)Cc1cc(F)ccc1[C@H]1CC[C@@H](c2cccc(C)c2)CC1 [P006] | < 0.05 µM

q: // output IC50; input CNCCN(C)Cc1ncc(N)nc1C1CCN(c2cccc(C)c2)CC1 [P292] ; system PRMT1 (Homo sapiens, UniProt Q99873)
a: < 0.05 µM

q: // output IC50; input CNCCN(C)Cc1ncccc1N1CCCC1 [P197] ; system PRMT1 (Homo sapiens, UniProt Q99873)
a: ≥ 0.5 µM

q: // output IC50; input CNCCN(C)Cc1ncccc1C1CCN(c2nc(N(C)C)nc3ccccc23)CC1 [P240] ; system PRMT1 (Homo sapiens, UniProt Q99873)
a: < 0.05 µM

q: // output IC50; input CCOCC1(COCC)CCC(c2cnccc2CN(C)CCNC)CC1 [P206] ; system PRMT1 (Homo sapiens, UniProt Q99873)
a: 0.05 to 0.5 µM

q: // output IC50; input CNCCN(C)Cc1cc(F)ccc1C1CCN(S(=O)(=O)c2ccccc2[N+](=O)[O-])CC1 [P325] ; system PRMT1 (Homo sapiens, UniProt Q99873)
a: < 0.05 µM

q: // output IC50; input CNCCN(C)Cc1ccc(C)nc1C1CCN(c2cccc(NC)c2)CC1 [P162] ; system PRMT1 (Homo sapiens, UniProt Q99873)
a: 0.05 to 0.5 µM

q: // output IC50; input CNCCN(C)Cc1ncccc1C1CCN(c2ccc(C)cc2)CC1 [P096] ; system PRMT1 (Homo sapiens, UniProt Q99873)
a: < 0.05 µM

q: // output IC50; input CCOCC1(COCC)CCN(c2c(Br)cccc2CN(C)CCNC)CC1 [P123] ; system PRMT1 (Homo sapiens, UniProt Q99873)
a: < 0.05 µM
